Recorded koff by entry
# target.or.test.system: T1, Taq DNA polymerase (Thermus aquaticus, UniProt P19821 1-832)
# T1 construct: also called Taq enzyme; Taq DNA enzyme
# T1 sequence (P19821 whole entry): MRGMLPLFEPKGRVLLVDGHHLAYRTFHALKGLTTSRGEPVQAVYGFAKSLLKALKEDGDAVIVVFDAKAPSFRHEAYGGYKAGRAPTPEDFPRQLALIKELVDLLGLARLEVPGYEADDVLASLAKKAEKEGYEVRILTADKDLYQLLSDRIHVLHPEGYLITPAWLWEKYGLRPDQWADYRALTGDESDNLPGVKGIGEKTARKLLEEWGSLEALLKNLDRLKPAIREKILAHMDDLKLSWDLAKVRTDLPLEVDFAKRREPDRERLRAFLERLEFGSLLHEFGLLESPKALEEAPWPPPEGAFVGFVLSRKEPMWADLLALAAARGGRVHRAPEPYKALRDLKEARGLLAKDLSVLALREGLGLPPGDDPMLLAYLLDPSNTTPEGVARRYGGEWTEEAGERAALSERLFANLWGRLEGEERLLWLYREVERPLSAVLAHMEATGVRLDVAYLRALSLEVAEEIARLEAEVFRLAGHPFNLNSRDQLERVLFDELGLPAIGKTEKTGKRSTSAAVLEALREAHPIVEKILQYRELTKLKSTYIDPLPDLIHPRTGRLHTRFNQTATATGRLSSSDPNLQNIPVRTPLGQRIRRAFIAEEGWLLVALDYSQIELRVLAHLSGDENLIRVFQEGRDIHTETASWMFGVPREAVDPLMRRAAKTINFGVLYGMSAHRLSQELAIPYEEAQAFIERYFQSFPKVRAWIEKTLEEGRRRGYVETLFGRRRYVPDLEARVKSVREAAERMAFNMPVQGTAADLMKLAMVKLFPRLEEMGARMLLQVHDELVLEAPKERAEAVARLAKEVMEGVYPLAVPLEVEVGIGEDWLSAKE
# test.protocol: AMC sensor, antibody immobilised
Supply the numeric figure in s⁻¹, leaving out any unit text.

Field: example entries. Status: answers known.
Mutation 1-44 (antibody, V domains shown, Mutation 1 background; CDRs built) VH: QVQLQQPGAELVKPGASVRLSCQTSVNTFSTYYIYWVKQRPGEGLEWIGGVNPTSGGPVFNEKFKSKATLTVDTSSSTAYMQLSSLTSVDSAVYYCTRSLIRRGYYFDYWGQGTALTVSS VL: DIQMTQTTSSLSASLGDRVTISCRASQDIQNYLNWYQQKPDGTIKLLIYYTSRLNSGLPSRFSGSGSGTDYSLTIANLEQEDIATYFCQQDDTLPVTFGAGTKVELKR ... 4.9e-06
Mutation 1-6 (antibody, V domains shown, Mutation 1 background; CDRs built) VH: QVQLQQPGAELVKPGASVRLSCQTSVDTFSTYYIYWVKQRPGEGLEWIGGVNPTSNPVFNEKFKSKATLTVDTSSSTAYMQLSSLTSVDSAVYYCTRSLLRRGYYFDYWGQGTALTVSS VL: DIQMTQTTSSLSASLGDRVTISCRASQDIQNYVNWYQQKPDGTIKLLIYYTSRLNSGIPSRFSGSGSGTDYSLTIANLEQEDIATYFCQQDDTLPVTFGAGTKVELKR ... 3.41e-05

Now consider the entry below.
Entry Mutation 1-50 (antibody, V domains shown, Mutation 1 background; CDRs built) VH: QVQLQQPGAELVKPGASVRLSCQTSVNTFSTYYIYWVKQRPGEGLEWIGGVNPTSGGPVFNEKFKSKATLTVDTSSSTAYMQLSSLTSVDSAVYYCTRSVIRRGYYFDYWGQGTALTVSS VL: DIQMTQTTSSLSASLGDRVTISCRASQDIQNYLNWYQQKPDGTIKLLIYYTSRLQSGLPSRFSGSGSGTDYSLTIANLEQEDIATYFCQQDDTVPVTFGAGTKVELKR — recorded koff = 3.02e-05
